Exercise: for every item that follows, state its recorded EC50, CreLuc assay, 0.5% hP.
Molecular target: human GLP-1 receptor (human, UniProt P43220 24-463)
Experiment: cell-based or functional assay
Starred links: 1 amine or outer side, 2 acyl side, 3 side chain; linkers in the order of their positions; H or OH if unused. Non-standard residues stand in square brackets, D forms with d. Groups on a side chain read outwards from the residue. No end group written: not given here. *: point of attachment. C20 diacid = O=C(O)CCCCCCCCCCCCCCCCCCC(=O)*; γGlu = O=C(O)[C@H](CCC(=O)[*:2])N[*:1]; εLys = N[C@@H](CCCCN[*:1])C(=O)[*:2]; Aib = CC(C)(N)C(=O)O
Enter the number, and then the unit.

>  <binder>
YXEGTFTSDYSIXLEEQAQXAFVEWLIKGGPSSGQSLRHYYNWLTRQRY (Aib at 2, 13, 20; K28 side chain: C20DA-gGlu-gGlu-gGlu-gGlu-gGlu-gGlu-eLys; C-terminal NH2) [Compound 31]

>  <EC50, CreLuc assay, 0.5% hP>
0.06 nM

$$$$

# batch size: 4; output EC50, CreLuc assay, 0.5% hP per entry
1. Y[Aib]EGTFTSDYSI[Aib]LEKQAQ[Aib]AFVEWLIK([γGlu-γGlu-γGlu-γGlu-γGlu-γGlu-C20 diacid])GGGSEYVSLRHYYNWLTRQRY-NH2 (also: TFA salt) [Compound 65]
2. YXEGTFTSDYSIXLEEQAQXAFVQWLIKGGPSSGASLRHYYNWLTRQRY (Aib at 2, 13, 20; K28 side chain: C20DA-gGlu-gGlu-Glu-gGlu-gGlu-gGlu-eLys; C-terminal NH2) [Compound 30]
3. Y[Aib]EGTFTSDYSI[Aib]LEEQAQ[Aib]AFVQWLIK([εLys-γGlu-γGlu-γGlu-γGlu-γGlu-C20 diacid])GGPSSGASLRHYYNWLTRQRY-NH2 (also: TFA salt) [Compound 34]
4. YXEGTFTSDYSIXLEKQAQXAFVEWLIKGGPSSGASLRHYLNWLTRQRY (Aib at 2, 13, 20; K28 side chain: C20DA-gGlu-gGlu-gGlu-gGlu-gGlu-gGlu-eLys; C-terminal NH2) [Compound 86]

1. 2.65 nM
2. 0.08 nM
3. 0.09 nM
4. 0.25 nM

Give me EC50, CreLuc assay, 0.5% hP for each of these binders, listed below.
1. YXEGTFTSDYSIXLEKQAQXAFVEWLIKGGPSSGASLRHYYNLXTRQRY (Aib at 2, 13, 20, 44; K28 side chain: C20DA-gGlu-gGlu-gGlu-gGlu-gGlu-gGlu-eLys; C-terminal NH2) [Compound 79]
2. Y[Aib]EGTFTSDYSI[Aib]LEKQAQ[Aib]AFVQWLIK([εLys-γGlu-γGlu-γGlu-γGlu-γGlu-C20 diacid])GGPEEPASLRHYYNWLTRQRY-NH2 (also: TFA salt) [Compound 67]
3. YXEGTFTSDYSIXLEKEKQXAFVEWLIKGGPSSGASLRHYYNWLTRQRY (Aib at 2, 13, 20; K28 side chain: C20DA-gGlu-gGlu-gGlu-gGlu-gGlu-gGlu-eLys; C-terminal NH2) [Compound 69]
4. Y[Aib]EGTFTSDYSI[Aib]LEKQAQ[Aib]AFVEWLIKGGPSSGAS[Aib]RHYYNR[Aib]TRQRY-NH2 (not fully specified (residue 28); also: TFA salt) [Compound 13]

0.11 nM
0.38 nM
1.48 nM
0.05 nM
